Provide the recorded pIC50 for the entries that follow.
- Test system: normal CRL2120 human skin fibroblasts
- PROTOCOL DESCRIPTION: Neutral red (NR) uptake cytotoxicity assay, normal fibroblasts
- Assay type: cell-based
- ASSAY SETUP: Skin fibroblast, 72 h incubation
pIC50: −log10 of the molar value.

Worked cases, answers included:
[[record]]
molecule = "CCC(/C=C/[C@@H](C)C1CCC2C3=CCC4C[C@@H](O)CCC4(C)C3CCC21C)C(C)C (stereo partly drawn) [Compound 1, β-spinasterol]"
measured_target = "normal CRL2120 human skin fibroblasts"
assay_result = "< 4.01"

[[record]]
molecule = "C=CC(C)(C)c1cc2c(cc1O)OCC1c3ccc(OC)cc3OC21 (stereo not drawn) [Compound 13, seputhecarpan D]"
measured_target = "normal CRL2120 human skin fibroblasts"
assay_result = "< 3.93"

[[record]]
molecule = "C=C(C)[C@@H]1CC[C@]2(C)CC[C@]3(C)[C@H](CC[C@@H]4[C@@]5(C)CC[C@H](OC(C)=O)C(C)(C)[C@@H]5CC[C@]43C)[C@@H]12 [Compound 5, lupeol acetate]"
measured_target = "normal CRL2120 human skin fibroblasts"
assay_result = "< 4.07"

[[record]]
molecule = "COc1cc(O)c2c(=O)c(O[C@H]3OC(C)[C@@H](O)C(O)[C@H]3O)c(-c3cc(O)c(O)c(O)c3)oc2c1 (stereo partly drawn) [Compound 8]"
measured_target = "normal CRL2120 human skin fibroblasts"
assay_result = "< 4.08"

[[record]]
molecule = "C=C(C)[C@@H]1CC[C@@]2(C)C1C1CCC3[C@@]4(C)CC[C@H](O)C(C)(C)C4CC[C@@]3(C)[C@]1(C)C[C@@H]2O (stereo partly drawn) [Compound 3, 16β-hydroxylupeol]"
measured_target = "normal CRL2120 human skin fibroblasts"
assay_result = 4.28


Respectfully, I request pIC50 for each entry included below.
1. COc1cccc2c1C(=O)c1c(O)c3c(c(O)c1C2=O)C[C@@](O)(C(=O)CO)C[C@@H]3O[C@H]1C[C@H](N)[C@H](O)[C@H](C)O1 [Doxorubicin, doxorubicin, reference compound]
2. COc1cc(O)c2c(=O)c(O[C@H]3OC(C)[C@@H](O)C(O)[C@H]3O)c(-c3ccc(O)c(O)c3)oc2c1 (stereo partly drawn) [Compound 7]
3. C=C(CO)C1Cc2cc3c(cc2O1)OCC1c2ccc(OC)cc2OC31 (stereo not drawn) [Compound 12, seputhecarpan C]
4. CC(=O)O[C@H]1CC[C@]2(C)[C@H]3CC=C4[C@@H]5CC(C)(C)CC[C@]5(C)CC[C@@]4(C)[C@]3(C)CC[C@H]2C1(C)C [Compound 4, β-amyrin acetate]
5. CO[C@H]1[C@H](O)[C@@H](O)[C@@H](O)[C@@H](O)[C@@H]1O [Compound 6, 5-O-methyl-myo-inositol or sequoyitol]

Result ::
1: 6.23; 2: 4.28; 3: < 3.94; 4: < 4.07; 5: < 3.69

Respectfully, I request pIC50 for each entry included below.
1. C=C(CO)C1Cc2cc3c(cc2O1)OCC1c2ccc(O)cc2OC31 (stereo not drawn) [Compound 11, seputhecarpan B]
2. C[C@H]1C(=O)CC[C@@H]2[C@]1(C)CC[C@H]1[C@@]2(C)CC[C@@]2(C)[C@@H]3CC(C)(C)CC[C@]3(C)CC[C@]12C [Compound 2, friedelanone]

Result ::
< 3.93
< 4.03
